// provenance: the supplement of paper PMC9170038

System: K4 kissing-loop RNA reporter;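 further: bound reporter read as fluorescence of individual clusters on recovered sequencing chips by microscopy, with normalized cluster intensities fitted with a binding model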
Assay: apparent KD of K4 kissing-loop reporter; higher = weaker reporter binding
Settings: Eterna round: R107; input ligand: arginine 13.2 mM
Observable: apparent KD of K4 kissing-loop reporter
Field note: include the unit after the figure.

Worked cases, answers included:
[[record]]
sequence_input = "AAUUAAGUGACGGCCGCCACUAGGGUGAUUUUUUUGUUUGAGUGAUGUUUUGAUGUUUGAUUUUGUAGGACCGGGUUAGGUGAUG [juhmullin]"
result = "295 nM"

[[record]]
sequence_input = "GCCGUACGCAUGGAUACCAGCAGAACUGCCCUCCCAGUGAUGUUGGGAGGAUCUUUCCUAUGCCCUUGGCAGCCAUGCGUACGGC"
result = "113 nM"

[[record]]
sequence_input = "AGGAGCGUGCGAUGAAAAUCGCACGCUCCUCGAGGACCGGUACGGCCGCCACUCGCUCGCGCCGAGUGAUGUUCGGCCGGCGAAC [#2 Same State - Tryptophan A Attempt #8 (HarryS)]"
result = "180 nM"


Query string: Given the entry GGGUAUUACGGAGGAUAUGCACUGAGGAGGAGAAUAUAGUGAUGUUAUAUAAGAGGAAGGAGAAGAGUAGAAGGCCGUGGUGUUU [SSFMNB.J] , report its measured apparent KD of K4 kissing-loop reporter.
Result string: 126 nM

Query string: Given the entry ACGUGCACUAGUGAUGUUGGAAAAUAGGAAGGAGCGGGCGAAAGCCCAGGUAGGUCGCCUAAUAGCACGAGCCACGAAAGUGGCA , report its measured apparent KD of K4 kissing-loop reporter.
Result string: 514 nM

Query string: Given the entry GCCUGUGCGCGAAGGAGCGCCGUGACAGGUUACUGCCUUGGGCAGUGAUGUUGCUCAAUCUGGCAGGUAGGUCGCGUGCACAGGC , report its measured apparent KD of K4 kissing-loop reporter.
Result string: 187 nM

Query string: Given the entry AUCGUUGUCUGAGGAUAUCGUUUUACUGUAGUGAUGUUACAGAAAAUUCACAUUAUAAUUUCUAUUCGAGAAGGCAGACUACGUA [JR_ExcFMNB_Sub015] , report its measured apparent KD of K4 kissing-loop reporter.
Result string: 112 nM

Query string: Given the entry AGGUUUUGAUUAGGAUAUGCACUGACGACGAGAAUAUAGUGAUGUUAUAUAAUACGAAUUAGUAGAGUAGAAGGGAUUGAGGUUU [SSFMNB.X] , report its measured apparent KD of K4 kissing-loop reporter.
Result string: 307 nM

Query string: Given the entry UAAAAUAAAUAAUAGAGAGCGUUACUCGAAGGAGCGACGAAUUCGUCAGGUAGGUCGCGAGUGAUGUUCGCAAAUACGCUCUCAU [AK2 Exc Arginine A] , report its measured apparent KD of K4 kissing-loop reporter.
Result string: 655 nM

Query string: Given the entry AGGCACGAGCAAGGAUAUUGAGUAGAGUGAUGUUCUGCCUGGGUUGGCUCGUAAGAGCCUUCUCAGCGAGAAGGUGCUCGUGCCU [#2 Same State - FMN A Attempt #23 (HarryS)] , report its measured apparent KD of K4 kissing-loop reporter.
Result string: 432 nM

Query string: Given the entry AAGUGAUGUUGUAGUGAUGUUGUGAUGUUGCAGGAUAUAUAGUGAUGUAGAAGGGUAUGUACAGAUUUUUUUUUUGAGUGAUGUU [ffdcmullin] , report its measured apparent KD of K4 kissing-loop reporter.
Result string: 45.5 nM

Query string: Given the entry UAGUCCGGGUGAUGGUCAUCACGUGGCGGGCGAGGACCGGUACGGCCGCCACUCGACUUUGCAGUGAUGUUGCAAACCGGACAAU [Exclusion - Tryptophan A (Freestyle 22)] , report its measured apparent KD of K4 kissing-loop reporter.
Result string: 192 nM
